testTarget: MDR1 (Homo sapiens, UniProt P08183)
Construct: host or cells: MDCKII (canine kidney) cells
Sequence (P08183 whole entry): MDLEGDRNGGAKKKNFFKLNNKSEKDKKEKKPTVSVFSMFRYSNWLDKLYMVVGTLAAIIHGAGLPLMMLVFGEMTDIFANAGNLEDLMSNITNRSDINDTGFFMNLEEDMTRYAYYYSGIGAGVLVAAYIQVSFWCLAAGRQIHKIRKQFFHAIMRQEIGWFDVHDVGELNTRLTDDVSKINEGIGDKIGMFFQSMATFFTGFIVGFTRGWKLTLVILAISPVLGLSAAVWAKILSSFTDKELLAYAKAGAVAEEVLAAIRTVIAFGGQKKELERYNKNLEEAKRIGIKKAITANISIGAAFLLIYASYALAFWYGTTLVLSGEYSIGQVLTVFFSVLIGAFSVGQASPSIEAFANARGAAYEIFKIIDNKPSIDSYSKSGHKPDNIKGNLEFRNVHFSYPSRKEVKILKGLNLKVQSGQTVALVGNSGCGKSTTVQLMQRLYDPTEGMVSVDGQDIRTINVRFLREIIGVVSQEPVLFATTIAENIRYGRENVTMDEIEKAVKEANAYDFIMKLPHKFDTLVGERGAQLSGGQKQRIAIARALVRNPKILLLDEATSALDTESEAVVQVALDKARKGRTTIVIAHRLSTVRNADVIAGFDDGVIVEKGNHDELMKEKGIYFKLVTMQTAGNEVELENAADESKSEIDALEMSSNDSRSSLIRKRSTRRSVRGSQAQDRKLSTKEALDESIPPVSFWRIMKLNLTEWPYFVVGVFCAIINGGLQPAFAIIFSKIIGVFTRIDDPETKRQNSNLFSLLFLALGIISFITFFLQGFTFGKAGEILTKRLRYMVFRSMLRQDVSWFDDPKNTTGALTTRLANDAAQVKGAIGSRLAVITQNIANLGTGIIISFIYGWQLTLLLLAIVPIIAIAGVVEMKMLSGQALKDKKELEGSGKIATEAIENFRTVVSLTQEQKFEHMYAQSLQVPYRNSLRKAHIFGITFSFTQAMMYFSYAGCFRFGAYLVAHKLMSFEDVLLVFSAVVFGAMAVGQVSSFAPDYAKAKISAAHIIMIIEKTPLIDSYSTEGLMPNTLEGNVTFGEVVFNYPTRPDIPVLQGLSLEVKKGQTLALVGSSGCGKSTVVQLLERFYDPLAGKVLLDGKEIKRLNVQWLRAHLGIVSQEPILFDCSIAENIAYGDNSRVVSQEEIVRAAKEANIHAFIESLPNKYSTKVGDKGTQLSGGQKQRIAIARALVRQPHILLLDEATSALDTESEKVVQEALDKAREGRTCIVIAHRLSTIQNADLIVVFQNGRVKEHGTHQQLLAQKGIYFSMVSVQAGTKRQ
experimentSummary: Permeability in MDR1-MDCKII cells
Type: in vitro ADME
runParameters: dog, MDCK-MDR1, pH 7.4; MDCKII-MDR1, apical to basolateral
attributeMeasured: Papp A→B at 2.5 h, 2 μM (×10⁻⁶ cm/s)
Quick reminder: number only, in ×10⁻⁶ cm/s, skip the unit.

The reported Papp A→B at 2.5 h, 2 μM of the compound Cc1ccc(-c2noc([C@H]3C[C@@H]3F)n2)cc1NC(=O)c1cnc2cc(COCC(C)(C)O)ccn12 was 5.94

---

experimentSummary: Three time point assay for plasma, brain and testes distribution after oral dosing
Type: in vivo, rat
runParameters: rat, oral dosing, time point 2 h
Just a reminder that ties go to No: only Plasma concentration strictly below 1000 ng/mL counts as Yes.

// query Hello, I'm reviewing records and need to know if Plasma concentration of Cc1ccc(-c2noc([C@H]3C[C@@H]3F)n2)cc1NC(=O)c1cnc2cc(OC(F)(F)F)ccn12 is below 1000 ng/mL. Could you check?
// result No

// query Please state whether Plasma concentration is below 1000 ng/mL for Cc1ccc(-c2noc([C@H](C)O)n2)cc1NC(=O)c1cnc2ccccn12
// result No

---

testTarget: BCRP (BCRP-MDCKII monolayer) (Homo sapiens)
Construct: host or cells: MDCKII (canine kidney) cells
Sequence (Q9UNQ0 1-655): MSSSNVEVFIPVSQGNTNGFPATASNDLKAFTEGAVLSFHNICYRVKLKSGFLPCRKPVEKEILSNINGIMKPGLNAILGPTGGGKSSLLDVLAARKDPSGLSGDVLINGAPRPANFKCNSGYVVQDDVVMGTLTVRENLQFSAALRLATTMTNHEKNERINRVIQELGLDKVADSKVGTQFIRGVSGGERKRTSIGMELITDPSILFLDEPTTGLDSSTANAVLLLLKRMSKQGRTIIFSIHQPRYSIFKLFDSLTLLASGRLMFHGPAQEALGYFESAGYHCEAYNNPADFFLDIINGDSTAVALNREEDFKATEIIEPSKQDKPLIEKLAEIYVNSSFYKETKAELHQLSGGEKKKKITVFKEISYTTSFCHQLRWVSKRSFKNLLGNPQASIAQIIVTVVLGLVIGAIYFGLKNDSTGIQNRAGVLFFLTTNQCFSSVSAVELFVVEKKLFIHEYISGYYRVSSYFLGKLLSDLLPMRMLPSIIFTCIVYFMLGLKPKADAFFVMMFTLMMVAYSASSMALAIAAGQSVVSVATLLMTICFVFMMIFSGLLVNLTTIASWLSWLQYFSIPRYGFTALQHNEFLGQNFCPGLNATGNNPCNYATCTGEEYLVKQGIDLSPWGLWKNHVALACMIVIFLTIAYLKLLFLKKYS
experimentSummary: MDCKII-BCRP bidirectional transport assay
Format: in vitro ADME
runParameters: apical to basolateral
attributeMeasured: MDCK-BCRP: Papp A-B

Observe how each entry below is paired with its result.
Just so you know, measured MDCK-BCRP: Papp A-B for Cc1ccc(-c2noc(C3CC(S(=O)(=O)N(C)C)C3)n2)cc1NC(=O)c1cnc2ccccn12 (stereo not shown) came out at 1.91 10^−6 cm/s

The measured MDCK-BCRP: Papp A-B associated with Cc1ccc(-c2noc(C(C)O)n2)cc1NC(=O)c1cnc2ccccn12 (racemic) reads 2.19 10^−6 cm/s

Lab note: measured MDCK-BCRP: Papp A-B of Cc1ccc(-c2noc([C@H]3C[C@@H]3F)n2)cc1NC(=O)c1cnn2ccccc12 was 88.7 10^−6 cm/s

Reported MDCK-BCRP: Papp A-B for CCOC1CC(c2nc(-c3ccc(C)c(NC(=O)c4cnc5ccccn45)c3)no2)C1 (stereo not shown) [Compound I-309] was 11.3 10^−6 cm/s

The reported MDCK-BCRP: Papp A-B of the compound COc1ccn2c(C(=O)Nc3cc(-c4noc(C[C@H](C)O)n4)ccc3C)cnc2c1 was 5.19 10^−6 cm/s

Continuing:
Recorded MDCK-BCRP: Papp A-B (compound CCOC1CC(c2nc(-c3ccc(C)c(NC(=O)c4cnc5ccccn45)c3)no2)C1 (stereo not shown) [Compound I-310] ): 12 10^−6 cm/s

Value of MDCK-BCRP: Papp A-B reported for the compound Cc1ccc(-c2noc([C@H]3C[C@@H]3F)n2)cc1NC(=O)c1cnc2ccc(N3CCCC3)cn12 is 1.1 10^−6 cm/s

Notebook: Cc1ccc(-c2noc([C@H]3C[C@@H]3F)n2)cc1NC(=O)c1cnc2cc(N3CCC3)ccn12 , MDCK-BCRP: Papp A-B read as 6.12 10^−6 cm/s

---

The compounds listed here are annotated with their Caco-2: Papp A-B.
Tested on: Caco-2 cells
experimentSummary: Caco-2 permeability assay
Type: in vitro ADME
runParameters: Caco-2, apical to basolateral

Entry O=C(Nc1cc(-c2noc([C@H]3C[C@@H]3F)n2)ccc1Cl)c1cnc2ccccn12 [Compound I-341] — recorded Caco-2: Papp A-B = 16.2 10^−6 cm/s

Kindly note the recorded Caco-2: Papp A-B for Cc1ccc(-c2noc([C@H]3C[C@@H]3F)n2)cc1NC(=O)c1cnc2cc(OC(C)C)ccn12 [Compound I-88] , which is 6.24 10^−6 cm/s

Lookup result for Cc1ccc(-c2noc([C@H]3C[C@@H]3F)n2)cc1NC(=O)c1cnc2ccc(F)cn12 [Compound I-288] ; measured Caco-2: Papp A-B: 17.4 10^−6 cm/s

Per the record, Cc1ccc(-c2noc(CC(C)O)n2)cc1NC(=O)c1cnc2ccccn12 (racemic) [Compound I-363] has Caco-2: Papp A-B of 8.85 10^−6 cm/s

From here, focus on the item given below.
Caco-2: Papp A-B reported for this compound Cc1ccc(-c2noc(C3(O)CC(F)(F)C3)n2)cc1NC(=O)c1cnc2ccccn12 [Compound I-380] : 7.5 10^−6 cm/s

---

testTarget: PDGFRα (Homo sapiens, UniProt P16234)
Construct: purchased Millipore 14-467 (lot 26321_ACTI)
Sequence (P16234 24-1089): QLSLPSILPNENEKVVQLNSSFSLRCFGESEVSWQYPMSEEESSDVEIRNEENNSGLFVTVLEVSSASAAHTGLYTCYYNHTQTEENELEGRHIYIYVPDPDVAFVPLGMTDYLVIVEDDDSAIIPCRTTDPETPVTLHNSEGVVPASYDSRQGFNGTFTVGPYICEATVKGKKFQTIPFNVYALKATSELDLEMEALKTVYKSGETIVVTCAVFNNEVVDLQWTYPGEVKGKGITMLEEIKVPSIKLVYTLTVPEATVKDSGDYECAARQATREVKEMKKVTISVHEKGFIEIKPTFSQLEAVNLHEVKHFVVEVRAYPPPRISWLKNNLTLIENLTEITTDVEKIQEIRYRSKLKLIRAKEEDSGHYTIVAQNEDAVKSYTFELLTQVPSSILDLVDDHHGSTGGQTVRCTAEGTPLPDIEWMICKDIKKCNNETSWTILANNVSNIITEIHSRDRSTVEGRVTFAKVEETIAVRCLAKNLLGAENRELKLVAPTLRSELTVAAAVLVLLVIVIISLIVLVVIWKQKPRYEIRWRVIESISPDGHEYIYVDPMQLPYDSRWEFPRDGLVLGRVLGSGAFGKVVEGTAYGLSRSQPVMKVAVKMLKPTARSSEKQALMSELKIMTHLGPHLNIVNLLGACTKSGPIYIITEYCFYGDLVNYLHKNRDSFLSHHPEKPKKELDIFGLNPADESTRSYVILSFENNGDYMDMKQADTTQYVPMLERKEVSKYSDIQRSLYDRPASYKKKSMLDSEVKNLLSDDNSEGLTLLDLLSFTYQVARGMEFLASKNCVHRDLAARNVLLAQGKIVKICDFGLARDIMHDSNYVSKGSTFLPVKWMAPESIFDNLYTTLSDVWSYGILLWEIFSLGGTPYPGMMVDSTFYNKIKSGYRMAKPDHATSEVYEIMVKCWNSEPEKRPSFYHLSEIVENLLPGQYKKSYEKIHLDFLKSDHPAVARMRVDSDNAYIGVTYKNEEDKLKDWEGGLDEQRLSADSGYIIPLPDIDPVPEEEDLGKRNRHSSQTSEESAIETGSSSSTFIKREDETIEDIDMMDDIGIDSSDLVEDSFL
experimentSummary: HTRF biochemical assay, PDGFRα
runParameters: Table 4, read-out: PDFGRα Biochemical IC50 avg
Procedure: Exemplary compounds were tested for ability to inhibit the phosphorylation of a peptide substrate by the tyrosine kinase wt KIT, PDGFRα, or CSF-1R. Assay procedures and results are described below. Enzyme, substrate, and cofactors (ATP and Mn^2+) are combined in a well of a microtiter plate and incubated for 3 hours at 25° C. At the end of the incubation, the reaction is quenched by the addition of an EDTA-containing buffer. […] • 1. […] Read plate in BioTek Synergy Reader. […]
pIC50: −log10 of the molar value.
attributeMeasured: pIC50

Illustrative cases are given below, each with its answer.
Record Cc1ccc(-c2noc(CC(C)(C)O)n2)cc1NC(=O)c1cnc2ccccn12 , field pIC50: 6.30 to 7.30

// pIC50 value for Cc1ccc(-c2noc([C@H]3C[C@@H]3F)n2)cc1NC(=O)c1cnc2ccc(Cl)cn12 : 5.30 to 6.30

pIC50 for COc1ccn2c(C(=O)Nc3cc(-c4noc(C5CC(F)(F)C5)n4)ccc3C)cnc2c1 is 6.30 to 7.30

pIC50 reading for COc1ccc2ncc(C(=O)Nc3cc(-c4noc(C[C@@H](C)O)n4)ccc3C)n2c1 : 5.30 to 6.30

The molecule Cc1ccc(-c2noc(CCO)n2)cc1NC(=O)c1cnc2ccccn12 showed pIC50 equal to 5.30 to 6.30

The molecule Cc1ccc(-c2noc(CC(O)C(F)F)n2)cc1NC(=O)c1cnc2ccccn12 (stereo not shown) [Compound I-114] showed pIC50 equal to 4.52 to 5.30

# molecule Cc1ccc(-c2noc([C@H]3C[C@@H]3F)n2)cc1NC(=O)c1cnc2cc(OC(C)C)ccn12 ; its pIC50 = 5.30 to 6.30

Query Cc1nc(-c2ccc(C)c(NC(=O)c3cnc4cc(COCCO)ccn34)c2)no1 yields pIC50 of 5.30 to 6.30

Next:
# molecule Cc1ccc(-c2noc([C@@H]3CCCO3)n2)cc1NC(=O)c1cnc2ccccn12 ; its pIC50 = 5.30 to 6.30

pIC50 reported for this molecule COC(=O)N1CC(c2nc(-c3ccc(C(F)F)c(NC(=O)c4cnc5ccccn45)c3)no2)C1 : 4.52 to 5.30

// pIC50 lookup, molecule = Cc1cc(C)c(-c2noc(C3CC3(F)F)n2)cc1NC(=O)c1cnc2ccccn12 (racemic) , result: 5.30 to 6.30

The molecule listed as Cc1ccc(-c2noc([C@@H]3CC(F)(F)CN3)n2)cc1NC(=O)c1cnc2cc(COCCO)ccn12 has a reported pIC50 of 6.30 to 7.30

# pIC50 (molecule: Cc1ccc(-c2noc(CC(O)C(F)F)n2)cc1NC(=O)c1cnn2ccccc12 (single isomer, unassigned) ) is 5.30 to 6.30

Form field pIC50, entry COCc1ccn2c(C(=O)Nc3cc(-c4noc(C)n4)ccc3F)cnc2c1 : 4.52 to 5.30

According to the records, this molecule Cc1ccc(-c2noc([C@H]3C[C@@H]3F)n2)cc1NC(=O)c1cnn2cc(F)ccc12 displays pIC50 of 4.52 to 5.30

For Cc1ccc(-c2noc(C3CC(F)(F)C3)n2)cc1NC(=O)c1cnc2cc(CO)ccn12 the molecule record lists pIC50 as 5.30 to 6.30

Origin of values: patent US20240254119A1
